System: SF-268 CNS
Assay: NCI-60 one-dose screen, 48 h (100 = growth as untreated, 0 = no growth, -100 = all killed)
Settings: 10 µM unless noted
Procedure: Cells are grown in 96 well plates and exposed to the test compound for 48 hours. Compounds are tested at a single concentration, which is 10^-5 M for most compounds. The reported endpoint is percent growth (GI% or GIPRCNT), where numbers from 0 - 100% represent growth inhibition, and numbers from -100% - 0 represent cell death. For example, a value of 40 represents 60% growth inhibition. A value of 0 means no net growth occurred over the course of the experiment. […]
About 83,000 compounds went through this panel and 20% of them were active in at least one assay; those are over-represented in the sample as a whole. Calls of active or inactive are those of the source. Rule for the calls: active = growth percent below 10; inactive = the rest.
Record form. Attribute: growth. Fill in for each entry.

Measured on SF-268 CNS, CCOC(=O)c1cc(C(=O)c2ccc(OC)c(OC)c2)n2ccc(/C=C/c3cc[n+](CC(=O)c4ccc(OC)c(OC)c4)cc3)cc12 has a documented growth of 99.5% (inactive)

Log: SF-268 CNS, compound Cc1c(C(=O)NCCC(=O)NO)sc2ncnc(Nc3ccc(NC(=O)Nc4cccc(C(F)(F)F)c4)cc3)c12 , growth = 93.4% (inactive)

Entry N#C/C(=C\c1ccc([N+](=O)[O-])s1)c1nc2cc(Br)ccc2s1 , tested on SF-268 CNS, has a reported growth of 6.29% (active)

Lab note: compound c1ccc2c(-c3nccs3)c[nH]c2c1 tested on SF-268 CNS; recorded growth was 96.7% (inactive)

Kindly note: SF-268 CNS, Cc1ccc(NS(=O)(=O)c2ccc(-c3cnc(C4CC4)o3)cc2)cc1C(F)(F)F , growth value reported: 77.5% (inactive)

The compound Cc1nnc2c(Cc3ccccc3)nc3ccccc3n12 , when measured on SF-268 CNS, yielded growth of 89.9% (inactive)

Value sought: growth, system SF-268 CNS, item COc1ccc(C(=O)c2cc(C)c(OC)c(C)c2)c(OC)c1OC(=O)C(Cl)Cl . Result: 25% (inactive)

Readout growth for C=C1C(=O)O[C@H]2[C@H]1CC/C(CNC(=O)C(C)c1ccc(CC(C)C)cc1)=C\CC[C@@]1(C)O[C@@H]21 (some centres undefined) , test system SF-268 CNS, was 43.9% (inactive)

Measured growth (SF-268 CNS), entry C=C(C)[C@@H]1CC[C@]2(C(=O)N3CCN(C)CC3)CC[C@]3(C)[C@H](CC[C@@H]4[C@@]5(C)C/C(=C/c6cccnc6)C(=O)C(C)(C)[C@@H]5CC[C@]43C)[C@@H]12 : 72.7% (inactive)

Entry COc1cc2nc(-c3ccc(Cl)cc3)cc(OCCCN3CCC(O)CC3)c2cc1OC , tested on SF-268 CNS, has a reported growth of 54.8% (inactive)

The compound Cc1ccc(-c2nc3ccccn3c2/C=C2/C(=O)Nc3cc(Cl)ccc32)cc1 on SF-268 CNS: growth was 63.3% (inactive)

Item Cc1ccc(C(=O)/C(=C\c2ccc([N+](=O)[O-])cc2)S(=O)Cc2ccc(F)cc2)cc1 (centres undefined) was tested on SF-268 CNS; the reported growth is 19.5% (inactive)

Summary: O=C1CC(=O)OC(c2ccc([N+](=O)[O-])cc2)O1 , SF-268 CNS, growth = 4.85% (active)

Readout growth for Cc1nc2sccn2c1-c1nc2sccn2c1/C=C1/C(=O)Nc2ccccc21 , test system SF-268 CNS, was 60.9% (inactive)

Reported growth (SF-268 CNS) for entry Cc1c(C(=O)NCCC(=O)NO)sc2ncnc(Nc3ccc(F)c(Cl)c3)c12 is 96.5% (inactive)

Tested on SF-268 CNS: CN(C)c1ccc(C2C(C#N)=C(/N=C/c3ccccc3)Oc3c2ccc2ccccc32)cc1 (centres undefined) . Observed growth: 66.5% (inactive)

Reported SF-268 CNS growth for item Cc1ccc(-c2csc(NC(=O)CSc3nc(-c4ccccc4)cc(=O)[nH]3)n2)cc1 was 90.2% (inactive)

Record for NC1[C@H](c2c[nH]c3ccccc23)c2c([nH]c3ccccc23)[C@H]1c1c[nH]c2ccccc12 (some centres undefined) under target or system SF-268 CNS: growth reported as 84.4% (inactive)

Field growth (SF-268 CNS), entry CC(C)(C)c1ccc(NS(=O)(=O)c2ccc3nc(NC(=O)c4cnccn4)[nH]c3c2)cc1 : 37.7% (inactive)
